Sourced from paper PMC10397247

targetEntity: T1, 4H3605-AA
T1 chain: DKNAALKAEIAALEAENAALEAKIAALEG
assaySummary: two-hybrid library CCmax;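 also: natural log of median RNA to DNA barcode read ratio; higher means stronger binding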
cond: mean of both orientations
Values of interaction score strictly less than -0.5 map to true, and values of at least -0.5 map to false.

Determine whether this binder shows interaction score lower than -0.5 (ties excluded): DKIAALEAENAALEAKIAALEAENAALEG [4H2211-AA]
true

Identify whether the binder DENAALEAKIAALKAKNAALKAKIAALEG [4H1405-AA] records interaction score below -0.5.
false

Strictly below -0.5: is that where interaction score of DKIAALKAEIAALEAKIAALKAKNAALKG [4H2608-AA] sits?
true

Consider DEIAALKAKNAALKAKNAALKAEIAALEG [4H1017-AA] . Does its interaction score lie strictly below -0.5?
false

Hello, is interaction score of the following binder strictly smaller than -0.5? DENAALEAEIAALKAEIAALKAKNAALEG [4H1103-AA]
true

Below -0.5 on interaction score? Entry DKIAALKAKIAALKAKNAALEAKNAALEG [4H2935-AA]
true

Just wondering, is interaction score of DKIAALEAKNAALKAKIAALEAKNAALKG [4H2536-AA] below -0.5?
false
